System: Pseudomonas aeruginosa
Run Description: Antibacterial activity against Pseudomonas aeruginosa
Type: functional
Test Readout: MIC

Enquiry: Endpoint output: MIC of CC(C)C1=CC(=O)[C@](C)([C@H]2[C@H](O)C[C@@]3(C)[C@@H]4CC=C5[C@@H](CC[C@@H](O[C@@H]6OC[C@@H](O)[C@H](O[C@@H]7O[C@H](CO)[C@@H](O)[C@H](O)[C@H]7O[C@@H]7O[C@@H](C)[C@H](O)[C@@H](O)[C@H]7O)[C@H]6O)C5(C)C)[C@]4(C)C(=O)C[C@]23C)O1 [PICFELTARRACEMIN IV] . Value?
Return: > 100 µg/mL

Enquiry: Suppose we examine the molecule CC(C)C1=CC(=O)[C@](C)([C@H]2[C@H](O)C[C@@]3(C)[C@@H]4CC=C5[C@@H](CC[C@@H](O[C@@H]6O[C@H](CO)[C@@H](O)[C@H](O)[C@H]6O[C@@H]6O[C@@H](C)[C@H](O)[C@@H](O)[C@H]6O)C5(C)C)[C@]4(C)C(=O)C[C@]23C)O1 [PICFELTARRACEMIN IB] ; what MIC value has been reported?
Return: > 100 µg/mL

Enquiry: Given the entry CC(C)C1=CC(=O)[C@](C)([C@H]2[C@H](O)C[C@@]3(C)[C@@H]4CC=C5[C@@H](CC[C@@H](O[C@@H]6OC[C@@H](O)[C@H](O)[C@H]6O[C@@H]6O[C@@H](C)[C@H](O)[C@@H](O)[C@H]6O)C5(C)C)[C@]4(C)C(=O)C[C@]23C)O1 [PICFELTARRACEMIN IA] , report its measured MIC.
Return: > 100 µg/mL

----------
Test system: Pseudomonas aeruginosa
Run Description: Antibacterial activity against Pseudomonas aeruginosa
Type: functional
Test Readout: MIC

Enquiry: What does the data say about its MIC? Entry: CC(C)C1=CC(=O)[C@](C)([C@H]2[C@H](O)C[C@@]3(C)[C@@H]4CC=C5[C@@H](CC[C@@H](O[C@@H]6OC[C@@H](O)[C@H](O)[C@H]6O)C5(C)C)[C@]4(C)C(=O)C[C@]23C)O1 [PICFELTARRACEMIN VI]
Return: > 100 µg/mL

----------
Run Description: Inhibition of human serum classical complement system assessed as modulation of complement pathway by classical hemolytic complement assay

Compound | Activity
CC(C)C1=CC(=O)[C@](C)([C@H]2[C@H](O)C[C@@]3(C)[C@@H]4CC=C5[C@@H](CC[C@@H](O[C@@H]6OC[C@@H](O)[C@H](O)[C@H]6O[C@@H]6O[C@@H](C)[C@H](O)[C@@H](O)[C@H]6O)C5(C)C)[C@]4(C)C(=O)C[C@]23C)O1 [PICFELTARRACEMIN IA] | Dose-dependent effect
CC(C)C1=CC(=O)[C@](C)([C@H]2[C@H](O)C[C@@]3(C)[C@@H]4CC=C5[C@@H](CC[C@@H](O[C@@H]6O[C@H](CO)[C@@H](O)[C@H](O)[C@H]6O[C@@H]6O[C@@H](C)[C@H](O)[C@@H](O)[C@H]6O)C5(C)C)[C@]4(C)C(=O)C[C@]23C)O1 [PICFELTARRACEMIN IB] | Dose-dependent effect
CC(C)C1=CC(=O)[C@](C)([C@H]2[C@H](O)C[C@@]3(C)[C@@H]4CC=C5[C@@H](CC[C@@H](O[C@@H]6OC[C@@H](O)[C@H](O[C@@H]7O[C@H](CO)[C@@H](O)[C@H](O)[C@H]7O[C@@H]7O[C@@H](C)[C@H](O)[C@@H](O)[C@H]7O)[C@H]6O)C5(C)C)[C@]4(C)C(=O)C[C@]23C)O1 [PICFELTARRACEMIN IV] | Dose-dependent effect
CC(C)C1=CC(=O)[C@](C)([C@H]2[C@H](O)C[C@@]3(C)[C@@H]4CC=C5[C@@H](CC[C@@H](O[C@@H]6OC[C@@H](O)[C@H](O)[C@H]6O)C5(C)C)[C@]4(C)C(=O)C[C@]23C)O1 [PICFELTARRACEMIN VI] | Dose-dependent effect
